Reported IC50 on Thromboxane A2 receptor (Homo sapiens, UniProt P21731) for assorted compounds, compiled from publications.
Target: Thromboxane A2 receptor (Homo sapiens, UniProt P21731)
Sequence (P21731 whole entry): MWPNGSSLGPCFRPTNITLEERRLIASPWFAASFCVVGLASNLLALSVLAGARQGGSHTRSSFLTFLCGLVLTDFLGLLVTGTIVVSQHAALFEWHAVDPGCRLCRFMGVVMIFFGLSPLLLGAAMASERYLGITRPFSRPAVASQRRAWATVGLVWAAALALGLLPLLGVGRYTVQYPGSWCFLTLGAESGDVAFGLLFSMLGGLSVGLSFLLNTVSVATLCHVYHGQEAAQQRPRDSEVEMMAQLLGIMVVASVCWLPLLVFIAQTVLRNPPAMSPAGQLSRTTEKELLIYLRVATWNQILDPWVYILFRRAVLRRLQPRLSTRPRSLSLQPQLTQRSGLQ
QUANTITY MEASURED: IC50 (nM)

COMPOUND: O=C(O)CCCCO/N=C(/c1cccnc1)c1cccc(C(F)(F)F)c1
QUANTITY MEASURED: IC50
UNIT NAME: nM
MEASUREMENT QUALIFIER: =
RECORDED RESULT: 2100

COMPOUND: Cc1c(CC(=O)O)c2cccnc2n1Cc1ccc(S(C)(=O)=O)cc1
QUANTITY MEASURED: IC50
UNIT NAME: nM
MEASUREMENT QUALIFIER: >
RECORDED RESULT: 10000

COMPOUND: CC(C)(CCCO/N=C(\c1ccccc1)C(Cc1ccccc1)n1ccnc1)C(=O)O (stereo not given)
QUANTITY MEASURED: IC50
UNIT NAME: nM
MEASUREMENT QUALIFIER: =
RECORDED RESULT: 4160

COMPOUND: O=C(O)COCCO/N=C(\c1ccccc1)C(Cc1ccccc1)n1ccnc1 (stereo not given)
QUANTITY MEASURED: IC50
UNIT NAME: nM
MEASUREMENT QUALIFIER: =
RECORDED RESULT: 880

COMPOUND: CC(C)(CCO/N=C(\c1ccccc1)C(Cc1ccccc1)n1ccnc1)CC(=O)O (stereo not given)
QUANTITY MEASURED: IC50
UNIT NAME: nM
MEASUREMENT QUALIFIER: =
RECORDED RESULT: 230

COMPOUND: COc1ccc(S(=O)(=O)NCCc2ccc(/C(=C\CCCC(=O)O)c3cccnc3)cc2)cc1
QUANTITY MEASURED: IC50
UNIT NAME: nM
MEASUREMENT QUALIFIER: =
RECORDED RESULT: 52

COMPOUND: CSc1ccc(/C(=N\OCCCCC(=O)O)C(Cc2ccccc2)n2ccnc2)cc1 (stereo not given)
QUANTITY MEASURED: IC50
UNIT NAME: nM
MEASUREMENT QUALIFIER: =
RECORDED RESULT: 7500

COMPOUND: O=C(O)CCCC(c1ccc(CCNS(=O)(=O)c2ccc(Cl)cc2)cc1)c1cccnc1 (stereo not given)
QUANTITY MEASURED: IC50
UNIT NAME: nM
MEASUREMENT QUALIFIER: =
RECORDED RESULT: 74

COMPOUND: O=C(O)CCC/C=C(\c1ccc(CCNS(=O)(=O)Cc2ccccc2)cc1)c1cccnc1
QUANTITY MEASURED: IC50
UNIT NAME: nM
MEASUREMENT QUALIFIER: =
RECORDED RESULT: 260

COMPOUND: O=C(O)CCCCO/N=C(\C1CCCCC1)C(CC1CCCCC1)n1ccnc1 (stereo not given)
QUANTITY MEASURED: IC50
UNIT NAME: nM
MEASUREMENT QUALIFIER: =
RECORDED RESULT: 1900

* * *

Reported IC50 on Thromboxane A2 receptor (Homo sapiens) for assorted compounds, compiled from publications.
Target: Thromboxane A2 receptor (Homo sapiens)
Sequence (P21731 whole entry): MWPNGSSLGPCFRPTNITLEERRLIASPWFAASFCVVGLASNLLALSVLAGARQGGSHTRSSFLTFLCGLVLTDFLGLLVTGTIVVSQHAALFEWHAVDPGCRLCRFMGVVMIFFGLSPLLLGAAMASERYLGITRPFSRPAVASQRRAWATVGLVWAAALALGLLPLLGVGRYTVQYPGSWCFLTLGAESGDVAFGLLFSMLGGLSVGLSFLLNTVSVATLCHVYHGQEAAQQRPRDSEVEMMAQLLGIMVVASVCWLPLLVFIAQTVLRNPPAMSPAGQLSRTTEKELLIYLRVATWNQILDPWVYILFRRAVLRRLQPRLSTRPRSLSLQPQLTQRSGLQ
QUANTITY MEASURED: IC50

COMPOUND: Nc1c(-c2ccccc2)nn(-c2nc(C(=O)O)cs2)c1-c1ccccc1
RECORDED RESULT: 200 nM
--
COMPOUND: O=C(O)CCC/C=C\C[C@@H]1[C@H]2CC[C@H](C2)[C@H]1NS(=O)(=O)c1ccc2ccccc2c1
RECORDED RESULT: 670 nM
--
COMPOUND: O=C(O)CCCO/N=C(\Cn1ccnc1)C1CCCCC1
RECORDED RESULT: > 100000 nM
--
COMPOUND: O=C(O)c1ccc(/C=C(\c2ccc(CCNS(=O)(=O)c3ccc(Cl)cc3)cc2)c2cccnc2)cc1
RECORDED RESULT: 130 nM
--
COMPOUND: Cc1ccc(S(=O)(=O)NCCc2ccc(/C(=C\CCCC(=O)O)c3cccnc3)cc2)cc1
RECORDED RESULT: 33 nM
--
COMPOUND: O=C(O)CCCCCO/N=C(\c1ccccc1)C(Cc1ccccc1)n1ccnc1 (configuration not stated)
RECORDED RESULT: 160 nM
--
COMPOUND: O=C(O)CCC/C=C(\c1ccc(CCN(CCN2CCOCC2)S(=O)(=O)c2ccc(Cl)cc2)cc1)c1cccnc1
RECORDED RESULT: 58 nM
--
COMPOUND: COC(=O)CCC/C=C(\c1ccc(CCNS(=O)(=O)c2ccc(Cl)cc2)cc1)c1cccnc1
RECORDED RESULT: 36 nM
--
COMPOUND: O=C(O)CCCC/C=C(\c1ccc(CCNS(=O)(=O)c2ccc(Cl)cc2)cc1)c1cccnc1
RECORDED RESULT: 19 nM
--
COMPOUND: CC1(C)[C@H]2C[C@H](C/C=C\CCCC(=O)O)[C@@H](NC(=O)c3ccccc3)[C@@H]1C2
RECORDED RESULT: 810 nM
--
COMPOUND: CCN(CCc1ccc(/C(=C\CCCC(=O)O)c2cccnc2)cc1)S(=O)(=O)c1ccc(Cl)cc1
RECORDED RESULT: 33 nM
--
COMPOUND: O=C(O)CCCCO/N=C(/c1ccccc1)C(Cc1ccc(F)cc1)n1ccnc1 (configuration not stated)
RECORDED RESULT: 530 nM
--
COMPOUND: O=C(O)CCO/N=C(\c1ccc(CCNS(=O)(=O)c2ccc(Cl)cc2)cc1)c1cccnc1
RECORDED RESULT: 26 nM
--
COMPOUND: CC1(C)[C@H]2C[C@H](C/C=C\CCCC(=O)O)[C@@H](NS(=O)(=O)c3ccc4oc5ccccc5c4c3)[C@@H]1C2
RECORDED RESULT: 240 nM
--
COMPOUND: O=C(O)CCC/C=C(\c1ccc(CCN(Cc2ccc(C(=O)O)cc2)S(=O)(=O)c2ccc(Cl)cc2)cc1)c1cccnc1
RECORDED RESULT: 28 nM
--
COMPOUND: O=C(CCCCO/N=C(\C1CCCCC1)C(Cc1ccccc1)n1ccnc1)NO (configuration not stated)
RECORDED RESULT: 520 nM
--
COMPOUND: O=C(O)CCC/C=C\C[C@@H]1[C@H]2CC[C@H](C2)[C@H]1NS(=O)(=O)c1ccc(/N=N/c2ccccc2)cc1
RECORDED RESULT: 1300 nM
--
COMPOUND: O=C(O)CCCCCC(c1ccc(CCNS(=O)(=O)c2ccc(Cl)cc2)cc1)c1cccnc1 (configuration not stated)
RECORDED RESULT: 210 nM
--
COMPOUND: O=C(O)CCC/C=C(\c1ccc(CNS(=O)(=O)c2ccc(Cl)cc2)cc1)c1cccnc1
RECORDED RESULT: 55 nM
--
COMPOUND: CC1(C)[C@H]2C[C@H](C/C=C\CCCC(=O)O)[C@@H](NC(=O)c3ccsc3)[C@@H]1C2
RECORDED RESULT: 2100 nM
--
COMPOUND: Cc1ccc(CC(/C(=N/OCCCCC(=O)O)C2CCCCC2)n2ccnc2)cc1 (configuration not stated)
RECORDED RESULT: 70 nM
--
COMPOUND: O=C(O)CCC/C=C(\c1ccc(CCNC(=O)Cc2ccccc2)cc1)c1cccnc1
RECORDED RESULT: 1200 nM
--
COMPOUND: CCCCC[C@H](O)/C=C/[C@@H]1[C@@H](C/C=C\CCC[PH](=O)O)[C@@H](O)C[C@H]1O
RECORDED RESULT: > 10000 nM
--
COMPOUND: O=C(O)CCCCO/N=C(\Cn1ccnc1)C1CCCCC1
RECORDED RESULT: 53100 nM
--
COMPOUND: O=C1CCC(O)=C1CCc1cccc(CCNS(=O)(=O)c2ccc(Cl)cc2)c1
RECORDED RESULT: > 10000 nM
--
COMPOUND: O=C(O)CCCCO/N=C(\C1CCCCC1)C(Cc1ccco1)n1ccnc1 (configuration not stated)
RECORDED RESULT: 280 nM
--
COMPOUND: O=c1c(O)c(NCc2cccc(CCNS(=O)(=O)c3ccc(Cl)cc3)c2)c1=O
RECORDED RESULT: 377 nM
--
COMPOUND: Cc1cc(C)c(S(=O)(=O)NCCc2ccc(/C(=C\CCCC(=O)O)c3cccnc3)cc2)c(C)c1
RECORDED RESULT: 42 nM
--
COMPOUND: O=C1CCC(O)=C1Cc1cccc(CCNS(=O)(=O)c2ccc(Cl)cc2)c1
RECORDED RESULT: > 10000 nM
--
COMPOUND: O=C(O)C/C=C(\c1ccc(CCNS(=O)(=O)c2ccc(Cl)cc2)cc1)c1cccnc1
RECORDED RESULT: 12 nM
--
COMPOUND: O=C(O)CCCCO/N=C(/Cn1ccnc1)c1ccccc1
RECORDED RESULT: 46200 nM
--
COMPOUND: CCCCCC/C(Cn1ccnc1)=N\OCCCCC(=O)O
RECORDED RESULT: 19700 nM
--
COMPOUND: O=C(O)CCC/C=C\C[C@@H]1[C@H]2CC[C@H](C2)[C@H]1NS(=O)(=O)c1ccc2cc(-c3ccccc3)[nH]c2c1
RECORDED RESULT: 1200 nM
--
COMPOUND: O=C(O)CCCCO/N=C(\Cn1ccnc1)c1cccnc1
RECORDED RESULT: > 100000 nM
--
COMPOUND: O=C(O)CCC/C=C(/c1cccnc1)c1cccc(NS(=O)(=O)c2ccc(Cl)cc2)c1
RECORDED RESULT: 60 nM
--
COMPOUND: CCc1ccccc1N(CC(=O)NCc1ccc(Cl)cc1)S(=O)(=O)c1ccc(C)cc1
RECORDED RESULT: > 10000 nM
--
COMPOUND: CC1=C(OCC(C)C)CC(Cc2cccc(CCNS(=O)(=O)c3ccc(Cl)cc3)c2)C1=O (configuration not stated)
RECORDED RESULT: > 10000 nM
